target_of_assay: human FGFR1c + KLB receptor complex on HEK293 iLite FGF21 reporter cells (human, UniProt P11362 22-822; Q86Z14 1-1044)
Sequence (P11362 22-822, chain 1 of 2): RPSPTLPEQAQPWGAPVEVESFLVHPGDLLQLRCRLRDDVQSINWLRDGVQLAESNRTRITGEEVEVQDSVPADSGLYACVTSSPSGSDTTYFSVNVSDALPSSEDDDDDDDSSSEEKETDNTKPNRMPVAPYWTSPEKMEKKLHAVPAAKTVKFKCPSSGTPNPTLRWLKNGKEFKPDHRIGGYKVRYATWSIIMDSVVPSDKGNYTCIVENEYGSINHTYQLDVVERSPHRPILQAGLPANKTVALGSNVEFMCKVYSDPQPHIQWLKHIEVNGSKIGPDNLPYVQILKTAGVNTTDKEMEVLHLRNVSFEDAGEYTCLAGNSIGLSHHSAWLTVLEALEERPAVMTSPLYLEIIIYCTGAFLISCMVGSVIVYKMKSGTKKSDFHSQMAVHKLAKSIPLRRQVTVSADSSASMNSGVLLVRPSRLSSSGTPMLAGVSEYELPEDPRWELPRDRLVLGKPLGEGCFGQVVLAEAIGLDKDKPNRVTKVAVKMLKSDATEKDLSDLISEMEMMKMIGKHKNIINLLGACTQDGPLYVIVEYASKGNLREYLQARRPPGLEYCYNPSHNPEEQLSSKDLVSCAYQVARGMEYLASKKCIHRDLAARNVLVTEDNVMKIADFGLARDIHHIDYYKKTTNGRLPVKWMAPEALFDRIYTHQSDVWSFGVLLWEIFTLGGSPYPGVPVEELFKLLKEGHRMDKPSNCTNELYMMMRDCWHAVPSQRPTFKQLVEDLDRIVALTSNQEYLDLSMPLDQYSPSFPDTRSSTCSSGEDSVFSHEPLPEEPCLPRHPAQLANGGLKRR
Sequence (Q86Z14 whole entry, chain 2 of 2): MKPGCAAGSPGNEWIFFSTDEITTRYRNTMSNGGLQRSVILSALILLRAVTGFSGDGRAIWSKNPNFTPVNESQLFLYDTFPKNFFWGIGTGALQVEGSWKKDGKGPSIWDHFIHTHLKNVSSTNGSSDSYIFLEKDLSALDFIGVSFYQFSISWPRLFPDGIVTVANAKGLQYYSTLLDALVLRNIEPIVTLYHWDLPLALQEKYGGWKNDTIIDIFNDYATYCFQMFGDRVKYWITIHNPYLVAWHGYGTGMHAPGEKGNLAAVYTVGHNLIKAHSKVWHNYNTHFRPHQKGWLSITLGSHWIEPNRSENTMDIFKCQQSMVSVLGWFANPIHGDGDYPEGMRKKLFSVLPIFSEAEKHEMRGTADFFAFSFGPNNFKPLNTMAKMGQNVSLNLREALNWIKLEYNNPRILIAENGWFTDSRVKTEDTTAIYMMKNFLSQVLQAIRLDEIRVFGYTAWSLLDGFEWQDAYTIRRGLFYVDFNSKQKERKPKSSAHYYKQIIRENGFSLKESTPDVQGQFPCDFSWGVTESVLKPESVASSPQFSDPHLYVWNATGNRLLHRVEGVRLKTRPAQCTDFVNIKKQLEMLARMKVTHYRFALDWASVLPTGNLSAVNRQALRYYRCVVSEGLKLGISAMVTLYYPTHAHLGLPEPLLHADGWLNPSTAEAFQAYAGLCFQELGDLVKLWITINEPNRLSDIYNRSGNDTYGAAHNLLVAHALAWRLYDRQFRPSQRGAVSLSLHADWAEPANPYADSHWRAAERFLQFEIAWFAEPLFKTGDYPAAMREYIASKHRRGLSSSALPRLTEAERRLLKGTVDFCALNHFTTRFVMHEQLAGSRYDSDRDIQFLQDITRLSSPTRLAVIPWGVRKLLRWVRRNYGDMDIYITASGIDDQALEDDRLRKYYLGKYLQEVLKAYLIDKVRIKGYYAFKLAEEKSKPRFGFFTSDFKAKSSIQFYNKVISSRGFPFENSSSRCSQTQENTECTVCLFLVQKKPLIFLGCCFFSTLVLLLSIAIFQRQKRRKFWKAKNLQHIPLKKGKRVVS
test_protocol: cell-based or functional assay
outcome_measure: EC50

Ab0309 (antibody, IgG4, V domains shown, IgG4 PE) VH: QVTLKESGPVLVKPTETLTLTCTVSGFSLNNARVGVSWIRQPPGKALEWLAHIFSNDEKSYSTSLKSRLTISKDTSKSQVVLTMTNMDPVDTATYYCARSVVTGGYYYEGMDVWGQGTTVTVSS VL: SYVLTQPPSVSVAPGQTARITCGGNNIGSESVHWYQQKPGQAPVLVVYDESDRPSGIPERFSGSNSGNTATLTISRVEAGDEADYYCQVWDGESDHVVFGGGTKLTVLG: 0.04 nM
Ab0395 (antibody, IgG4, V domains shown) VH: QVTLKESGPVLVKPTETLTLTCTVSGFSLNNARVGVSWIRQPPGKALEWLAHIWSNDEKSYSTSLKSRLTISKDTSKSQVVLTMTNMDPVDTATYYCARSVVTGGYYYEGMDVWGQGTTVTVSS VL: SYVLTQPPSVSVAPGQTARITCGGNNIGSESVHWYQQKPGQAPVLVVDDSDRPSGIPERFSGSNSGNTATLTISRVEAGDEADYYCQVFDGNSAHVVFGGGTKLTVLG: > 100 nM

Please turn your attention to the following entry.
Prompt: Which measured EC50 value corresponds to Ab0358 (antibody, IgG4, V domains shown, IgG4 PE) VH: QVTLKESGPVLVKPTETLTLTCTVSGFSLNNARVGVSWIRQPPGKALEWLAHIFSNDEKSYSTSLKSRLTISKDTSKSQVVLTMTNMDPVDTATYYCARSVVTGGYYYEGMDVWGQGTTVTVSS VL: SYVLTQPPSVSVAPGQTARITCGGSNIGSESVHWYQQKPGQAPVLVVYEASDRPSGIPERFSGSNSGNTATLTISRVEAGDEADYYCQVWHGSSDHVVFGGGTKLTVLG ?
Completion: 0.07 nM
